assay type: in vivo, human; settings: male, human, plasma, oral, 25 mg
Measurement Kind: t max (min)
Report the figure in min without appending any unit label.

Returns the measured t max for the input molecule. Input: `O=c1c(-n2ccnn2)c[nH]n1-c1cc(N2CCOCC2)ncn1`
45

###

target: UGT-mediated glucuronidation of molidustat (M1 formation) (Homo sapiens, UniProt P22309); experiment: Inhibition of M1 formation from molidustat in pooled human liver microsomes; format: in vitro ADME; conditions: human, pooled human liver microsomes, probe molidustat 5 µmol/L (formation of M1), IC50, pooled HLMs 0.3 mg/mL, N=1, Table 1
Sequence (P22309 26-533): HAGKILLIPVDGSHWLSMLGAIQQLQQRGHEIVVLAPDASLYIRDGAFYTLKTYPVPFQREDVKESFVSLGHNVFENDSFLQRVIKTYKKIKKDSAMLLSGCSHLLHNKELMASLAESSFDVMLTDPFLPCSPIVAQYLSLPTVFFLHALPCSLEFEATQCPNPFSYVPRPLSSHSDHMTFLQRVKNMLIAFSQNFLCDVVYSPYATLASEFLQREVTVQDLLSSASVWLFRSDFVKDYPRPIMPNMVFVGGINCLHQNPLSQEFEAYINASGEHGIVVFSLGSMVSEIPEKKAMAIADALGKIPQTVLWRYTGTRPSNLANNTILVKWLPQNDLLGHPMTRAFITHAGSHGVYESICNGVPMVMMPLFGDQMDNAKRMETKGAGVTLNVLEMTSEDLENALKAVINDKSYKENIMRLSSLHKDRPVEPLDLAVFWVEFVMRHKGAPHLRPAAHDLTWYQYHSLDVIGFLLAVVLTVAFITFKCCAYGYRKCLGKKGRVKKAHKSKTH
Form field: IC50 at 30 min (one value per entry).
Supply the numeric figure in µM, leaving out any unit text.

Illustrative cases are given below, each with its answer.
CCc1nn(CCCN2CCN(c3cccc(Cl)c3)CC2)c(=O)n1CCOc1ccccc1 : 11.4
COc1cc(/C=C/C(=O)CC(=O)/C=C/c2ccc(O)c(OC)c2)ccc1O : 2.2

From here, focus on the item given below.
# query: IC50 at 30 min of entry `CO[C@H]1C[C@@H]2CC[C@@H](C)[C@@](O)(O2)C(=O)C(=O)N2CCCC[C@H]2C(=O)O[C@H]([C@H](C)C[C@@H]2CC[C@@H](OCCO)[C@H](OC)C2)CC(=O)[C@H](C)/C=C(\C)[C@@H](O)[C@@H](OC)C(=O)[C@H](C)C[C@H](C)/C=C/C=C/C=C/1C`
4.5

###

Recorded IC50 at 30 min, one value per entry.
target: UGT-mediated glucuronidation of molidustat (M1 formation) (Homo sapiens, UniProt P22309); test: Inhibition of M1 formation from molidustat in pooled human liver microsomes; type: in vitro ADME; conditions: human, pooled human liver microsomes, probe molidustat 5 µmol/L (formation of M1), IC50, pooled HLMs 0.3 mg/mL, N=1, Table 1
Hi! Could you send only the number? It should be in µM, unit omitted.

Observe how each entry below is paired with its result.
Cc1nc(-c2ccc(OCC(C)C)c(C#N)c2)sc1C(=O)O : 7.2
Cc1nc(Nc2ncc(C(=O)Nc3c(C)cccc3Cl)s2)cc(N2CCN(CCO)CC2)n1 : 1.4
CC(C)(O)c1ccccc1CC[C@@H](SCC1(CC(=O)O)CC1)c1cccc(/C=C/c2ccc3ccc(Cl)cc3n2)c1 : 0.49

Consider the compound shown here: `O=c1c(-c2ccc(O)cc2)coc2cc(O)ccc12` What is its recorded IC50 at 30 min?
6.8

And for CC(=O)N1CCN(c2ccc(OCC3COC(Cn4ccnc4)(c4ccc(Cl)cc4Cl)O3)cc2)CC1 (centres unmarked) ?
6.1

###

target: UGT-mediated glucuronidation of molidustat (M1 formation) (Homo sapiens); experiment: Inhibition of M1 formation from molidustat in pooled human liver microsomes; assay type: in vitro ADME; conditions: human, pooled human liver microsomes, probe molidustat 5 µmol/L (formation of M1), IC50, pooled HLMs 0.3 mg/mL, N=1, Table 1
Binary label based on IC50 at 30 min with cut-off 5 µM: below gives satisfied, not below gives not satisfied.

// below: answered compounds
COc1ccc2[nH]c([S+]([O-])Cc3ncc(C)c(OC)c3C)nc2c1 (centres unmarked) : not satisfied
CC(=O)O[C@H]1C(=O)[C@@]2(C)[C@H]([C@H](OC(=O)c3ccccc3)[C@]3(O)C[C@H](OC(=O)[C@H](O)[C@@H](NC(=O)c4ccccc4)c4ccccc4)C(C)=C1C3(C)C)[C@]1(OC(C)=O)CO[C@@H]1C[C@@H]2O : not satisfied
O=C(O)c1cc(-c2ccc(F)cc2F)ccc1O : not satisfied
COCC(=O)O[C@]1(CCN(C)CCCc2nc3ccccc3[nH]2)CCc2cc(F)ccc2[C@@H]1C(C)C : not satisfied
O=C(O)c1cccnc1Nc1cccc(C(F)(F)F)c1 : not satisfied

Does `CC(C)(C)NC(=O)[C@@H]1CN(Cc2cccnc2)CCN1C[C@@H](O)C[C@@H](Cc1ccccc1)C(=O)N[C@H]1c2ccccc2C[C@H]1O` have IC50 at 30 min strictly under 5 µM?
satisfied

Next compound up: `Cc1cn(-c2cc(NC(=O)c3ccc(C)c(Nc4nccc(-c5cccnc5)n4)c3)cc(C(F)(F)F)c2)cn1`
satisfied
